# IC50 listing for each entry below
# TARGET_SYSTEM: MCT1 (Homo sapiens, UniProt P53985)
# Construct: MCT1-expressing A-549 cells[14],[15] were exposed to the MCT1 substrate 3-BP, which becomes influxed by MCT1; endogenous in cells
# Sequence (P53985 whole entry): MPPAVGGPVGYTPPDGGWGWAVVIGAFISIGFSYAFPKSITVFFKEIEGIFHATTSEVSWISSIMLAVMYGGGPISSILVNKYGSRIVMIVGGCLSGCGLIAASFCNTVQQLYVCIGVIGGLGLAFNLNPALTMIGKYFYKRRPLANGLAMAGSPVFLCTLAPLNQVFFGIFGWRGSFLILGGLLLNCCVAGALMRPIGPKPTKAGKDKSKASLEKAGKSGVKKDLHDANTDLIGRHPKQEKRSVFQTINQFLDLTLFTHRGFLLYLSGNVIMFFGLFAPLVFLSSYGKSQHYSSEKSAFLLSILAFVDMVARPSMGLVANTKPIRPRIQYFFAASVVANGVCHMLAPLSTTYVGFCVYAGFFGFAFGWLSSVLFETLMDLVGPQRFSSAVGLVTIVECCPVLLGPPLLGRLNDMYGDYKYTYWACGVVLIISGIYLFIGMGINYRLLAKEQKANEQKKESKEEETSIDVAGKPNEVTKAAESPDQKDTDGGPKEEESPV
# Sequence (P35613 140-385 partner limits assumed): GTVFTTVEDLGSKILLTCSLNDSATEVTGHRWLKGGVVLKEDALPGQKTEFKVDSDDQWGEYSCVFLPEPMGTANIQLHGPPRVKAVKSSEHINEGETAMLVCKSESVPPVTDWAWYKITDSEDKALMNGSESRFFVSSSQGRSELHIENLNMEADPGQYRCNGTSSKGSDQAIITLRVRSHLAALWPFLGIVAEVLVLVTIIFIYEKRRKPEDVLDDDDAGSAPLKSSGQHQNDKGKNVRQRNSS
# RUN_DESCRIPTION: functional 3-BP cell viability assay (MCT1 transport inhibition)
# CONDITION_DETAILS: MCT1-expressing A-549 cells, 50 μM 3-BP, 72 h; read-out: MCT1 transport inhibition IC50 ± SEM
ENDPOINT_LABEL: IC50 (nM)

| COMPOUND | ENDPOINT_LABEL | UNITS_TEXT | RESULT_NUMBER |
| --- | --- | --- | --- |
| COC(=O)/C(C#N)=C/c1cn(CC(=O)Nc2ccc(F)cc2)c2ccccc12 [Compound 25] | IC50 | nM | 793 |
| COC(=O)/C(C#N)=C/c1cn(CC(=O)Nc2ccccn2)c2ccccc12 [Compound 29] | IC50 | nM | 198 |
| COC(=O)/C(C#N)=C/c1cn(CC(=O)Nc2ccc(C)cc2)c2ccccc12 [Compound 21] | IC50 | nM | 112 |
